System: HCV replicon 1AY93H
Experiment: Cell-based HCV Replicon Assay A, replicon 1AY93H
Settings: read-out: 1A Y93H IC50, replicon 1AY93H
Please provide measured pIC50 for the entries that follow.
# log scale: pIC50 equals minus log10 of the concentration in mol/L

Query COC(=O)NC(C(=O)N1[C@@H]2C[C@@H]2C[C@H]1c1ncc(-c2ccc3c(c2)cc2n3C(c3cnc(C4CCCC4)s3)Oc3cc(-c4cnc([C@@H]5CCCN5C(=O)[C@@H](NC(=O)OC)C(C)C)[nH]4)cc(F)c3-2)[nH]1)C1CCOC(C)(C)C1 (single isomer, unassigned) [Compound 321] yields pIC50 of 11.72

Query CCCc1ncc(C2Oc3cc(-c4cnc([C@@H]5CCCN5C(=O)[C@@H](NC(=O)OC)C(C)C)[nH]4)cc(F)c3-c3cc4cc(-c5cnc([C@@H]6CCCN6C(=O)C(NC(=O)OC)C6CCOC(C)(C)C6)[nH]5)ccc4n32)s1 (single isomer, unassigned) [Compound 58] yields pIC50 of 11.07

Query COC(=O)NC(C(=O)N1[C@@H]2C[C@@H]2C[C@H]1c1ncc(-c2ccc3c(c2)cc2n3C(c3cnc(C4CC4)s3)Oc3cc(-c4cnc([C@@H]5CCCN5C(=O)[C@@H](NC(=O)OC)C(C)C)[nH]4)cc(F)c3-2)[nH]1)C1C[C@@H](C)O[C@@H](C)C1 (single isomer, unassigned) [Compound 310] yields pIC50 of 10.02
